Experiment: Encapsulation rate, drug loading concentration and total RNA concentration detection (RiboGreen)
Format: physicochemical
Condition Label: LNP formulation of the named lipid
Readout Name: Drug loading concentration (µg/mL)
Your answer is read as µg/mL, so omit the unit and give the number.

Solved entries:
{"Compound": "CCCCCCCCC(CCCCCCCC)COC(=O)CCCCCN(CCCCCC(=O)OCC(CCCCCCCC)CCCCCCCC)CCN(C)CCNC [YK-223]", "Units Of Measure": "µg/mL", "Result Number": 37.51}
{"Compound": "CCCCCCCCCCOC(=O)CCCN(CCCCCC(=O)OCC(CCCCCCCC)CCCCCCCC)CCN(C)CCOC [YK-216]", "Units Of Measure": "µg/mL", "Result Number": 27.36}

Problem: // fetch Drug loading concentration given entry CCCCCCCCCCCOC(=O)CCCCCN(CCCCCCCC(=O)OC(CCCCCCCC)CCCCCCCC)CCN(C)CCO [YK-201]
Result: 40.32

Problem: // fetch Drug loading concentration given entry CCCCCCCCCCOC(=O)CCCN(CCCCCC(=O)OCCC(CCCCCC)CCCCCC)C(=O)SCCCN(C)C [YK-220]
Result: 25.27
